Kindly supply the reported TGI values for the records listed here.
Tested on: NCI-H522 lung
Test: NCI tumour cell line growth inhibition, 48 h
Numbers only, in µM.

COMPOUND: O=C1OC(CC(=O)c2ccc(F)cc2)C(Cl)=C1Cl (stereo not drawn)
UOM: µM
TGI: 34.9

Now, please, on to the next compound.
Missing value: TGI, NCI-H522 lung, entry N#C/C(=C\c1ccc(O)c(O)c1)C(=O)NCc1ccc(C(F)(F)F)cc1 . Fill in?
19.6

---

System: HCC-2998 colon
Test: NCI tumour cell line growth inhibition, 48 h
QUANTITY: GI50

COMPOUND: Cc1cc(F)c(C(=O)Nc2cccc(-c3nncn3C(C)C)n2)cc1-n1cnc(C2CC2)c1
MEASUREMENT_TARGET: HCC-2998 colon
DATA_VALUE: 14.3 µM

COMPOUND: O=c1cc(-c2ccc(Cl)cc2)[nH]c2ccccc12
MEASUREMENT_TARGET: HCC-2998 colon
DATA_VALUE: > 100 µM

COMPOUND: Nc1nc(=O)n(C2CC(O)C(CO)O2)cc1F (stereo not given)
MEASUREMENT_TARGET: HCC-2998 colon
DATA_VALUE: 0.000943 µM

COMPOUND: CN(C)c1ccc(/C=C/C(=O)c2ccc(Nc3nc(Nc4ccc(F)cc4)nc(Nc4ccc(F)cc4)n3)cc2)cc1
MEASUREMENT_TARGET: HCC-2998 colon
DATA_VALUE: 11 µM

Now, please, on to the next compound.
Form field: reported GI50 of Oc1ccc(NC(=S)Nc2ccccc2)cc1
> 100 µM

Where do these numbers come from? They come from PubChem BioAssay (NCI).
